Attribution: PubChem BioAssay AID2111

# testSystem: Lysosomal alpha-glucosidase (Homo sapiens) (UniProt P10253)
# assayText: Confirmation of Inhibitors and Activators of Human alpha-Glucosidase From Spleen Homogenate Using an Alternate Red Fluorescent Susbtrate
# testConditions: resorufin-glucoside fluorescence; series mostly up to 62.8 µM
Calls of active or inactive are those of the source. Calls follow the shape of the dose curve; as a rule, active = well fitted curve in either direction with a large enough effect; inconclusive = small, poorly fitted or top-dose-only effect; inactive = no such curve, though single readings can be large or run the other way.
Classes used: active, inactive

1) CC(=O)c1ccc(N2CCN(S(=O)(=O)c3ccc4c(c3)n(C)c(=O)n4C)CC2)cc1	inactive
2) CCCN1CNc2c(c(=O)[nH]c(=S)n2CCC(C)(C)C)C1	inactive
3) CCCN1CNc2c(c(=O)[nH]c(=S)n2CCc2ccc(C)c(C)c2)C1	active
4) CCCN1CNc2c(c(=O)[nH]c(=S)n2CCc2cccc(OC)c2OC)C1	active
5) CC(=O)c1ccc(N2CCN(S(=O)(=O)c3ccc4c(c3)CCCN4C(C)=O)CC2)cc1	inactive
6) CCCN1CNc2c(c(=O)[nH]c(=S)n2CCc2cc(OC)cc(OC)c2)C1	active
7) COc1ccc(CCn2c(=S)[nH]c(=O)c3[nH]cnc32)cc1OC	inactive
8) CC(=O)c1ccc(N2CCN(S(=O)(=O)c3ccc4c(c3)oc(=O)n4C)CC2)cc1	inactive
9) CCCN1CNc2c(c(=O)[nH]c(=S)n2CCc2ccccc2C)C1	active
10) CCCN1CNc2c(c(=O)[nH]c(=S)n2CCc2cccc(OC)c2)C1	active
11) CCCN1CNc2c(c(=O)[nH]c(=S)n2CCc2cccs2)C1	active
12) CCCN1CNc2c(c(=O)[nH]c(=S)n2CCc2cc(Cl)cc(Cl)c2)C1	active
13) CCCN1CNc2c(c(=O)[nH]c(=S)n2CCc2cccc(C)c2C)C1	active
14) CC(=O)N1CCN(S(=O)(=O)c2ccc3c(c2)CC(=O)N3)CC1	active
15) CCCN1CNc2c(c(=O)[nH]c(=S)n2CCc2cccc(Cl)c2)C1	active
16) CC(=O)c1ccc(N2CCN(S(=O)(=O)c3ccc4[nH]c(=O)oc4c3)CC2)cc1	inactive
17) CCCN1CNc2c(c(=O)[nH]c(=S)n2CCc2ccc(Cl)cc2Cl)C1	active
18) CCCN1CNc2c(c(=O)[nH]c(=S)n2CCC(C)C)C1	inactive
19) CCCN1CNc2c(c(=O)[nH]c(=S)n2CCc2ccc(Cl)cc2)C1	active
20) CC(=O)N1CCN(c2ccc(NS(=O)(=O)c3ccc4c(c3)CC(=O)N4)cc2)CC1	inactive
21) OCCNc1nc(-c2cccs2)nc2ccccc12	inactive
22) CC(=O)c1ccc(N2CCN(S(=O)(=O)c3ccc4c(c3)OCC(=O)N4)CC2)cc1	inactive
23) CC(=O)c1ccc(N2CCN(C(=O)c3ccc4c(c3)CC(=O)N4)CC2)cc1	inactive
24) CCCN1CNc2c(c(=O)[nH]c(=S)n2CCc2cc(OC)ccc2OC)C1	active
25) CCCCN1C[C@H](O)[C@@H](O)[C@H](O)[C@H]1CO	inactive
26) O=C1Cc2cc(S(=O)(=O)N3CCN(c4ccc(CO)cc4)CC3)ccc2N1	active
27) CCCN1CNc2c(c(=O)[nH]c(=S)n2CCc2ccc(Cl)c(Cl)c2)C1	active
28) Cc1ccc(N2CCN(S(=O)(=O)c3ccc4c(c3)CC(=O)N4)CC2)cc1	inactive
29) CC(=O)Nc1ccc(S(=O)(=O)N2CCN(c3ccc(C(C)=O)cc3)CC2)cc1	inactive
30) CCCN1CNc2c(c(=O)[nH]c(=S)n2CCc2cc(Cl)ccc2Cl)C1	active
31) CCCN1CNc2c(c(=O)[nH]c(=S)n2CCc2ccc(OC)cc2OC)C1	active
32) O=C1Cc2cc(S(=O)(=O)N3CCN(c4ccc(C(F)(F)F)cc4)CC3)ccc2N1	inactive
33) CCCN1CNc2c(c(=O)[nH]c(=S)n2CCc2cc(C)cc(C)c2)C1	active
34) CCCN1CNc2c(c(=O)[nH]c(=S)n2CCc2c(Cl)cccc2Cl)C1	active
35) CCCN1CNc2c(c(=O)[nH]c(=S)n2CCc2ccccc2OC)C1	active
36) CCCN1CNc2c(c(=O)[nH]c(=S)n2CCc2c(OC)cccc2OC)C1	active
37) COc1ccc(CCc2c[nH]c(=O)c3cncnc23)cc1OC	inactive
38) CCCN1CNc2c(c(=O)[nH]c(=S)n2CCc2ccc(C)cc2)C1	active
39) COc1ccc(CCn2c3c(c(=O)[nH]c2=S)CN(C(C)C)CN3)cc1OC	active
40) CCCN1CNc2c(c(=O)[nH]c(=S)n2CCc2ccc(OC)cc2)C1	active
41) O=C1Cc2cc(S(=O)(=O)N3CCN(c4ccc(F)cc4)CC3)ccc2N1	active
42) CCCN1CNc2c(c(=O)[nH]c(=S)n2CCc2ccc(OC)c(OC)c2)C1	active
43) CCCN1CNc2c(c(=O)[nH]c(=S)n2CCc2c(C)cccc2C)C1	active
